Test system: EKVX NSCLC
Experiment: NCI tumour cell line growth inhibition, 48 h
For each record, write down the corresponding TGI.

Query TGI on EKVX NSCLC for O=c1cnn2c(n1)sc1ccc3ccccc3c12
> 100 µM

Query TGI on EKVX NSCLC for CCCCN1C(=O)NC(Cc2ccccc2)C1=O (configuration not stated)
> 100 µM

Query TGI on EKVX NSCLC for O=[N+]([O-])c1cc(Cl)cc2cc(Cl)cnc12
> 100 µM

Query TGI on EKVX NSCLC for Cc1cc(C)c2c(=O)n(CN3CCC(O)(c4ccccc4)CC3)sc2n1
81.7 µM

Query TGI on EKVX NSCLC for COC1=CC(c2ccc[nH]2)=N/C1=C\c1[nH]c(C)c(C(=O)CCCCC(=O)Nc2ccccc2)c1C
19.8 µM

Query TGI on EKVX NSCLC for N#CCCN(CCC#N)c1ccc(/C=C2\N=C(c3ccccc3)N(c3ccccn3)C2=O)cc1
> 100 µM

Query TGI on EKVX NSCLC for OCC12C3C4C1C1C2C3C41CO (configuration not stated)
> 100 µM

---

Tested on: OVCAR-3 ovarian
Experiment: NCI tumour cell line growth inhibition, 48 h
test.readout: GI50

Give the measured GI50 of Cc1ccc(C)c(-c2csc(Nc3ccc(C)c(C)c3)n2)c1 .
66300 nM

Give the measured GI50 of Nc1c(C(=O)Nc2ccccc2Cl)sc2nc3c(cc12)CCCCCC3 .
3230 nM

Give the measured GI50 of COc1cc(/C=C2\COc3ccc(O)c(O)c3C2=O)cc(OC)c1 .
596 nM

Give the measured GI50 of COc1ccc2c(c1)CC[C@@H]1[C@@H]2CC[C@]2(C)C(c3ccco3)=C(C=O)C[C@@H]12 .
2080 nM

Give the measured GI50 of Nc1ccc(/C=N/Nc2ccnc3c(N)cccc23)c2cccnc12 .
1630 nM

---

For each record, write down the corresponding TGI.
Tested on: MCF7 breast
Assay: NCI tumour cell line growth inhibition, 48 h
The response must be a number in µM with no trailing unit.

Give the measured TGI of CC(=O)Oc1cc2c(cc1OC(C)=O)[C@H]1CC[C@]3(C)[C@@H](OC(C)=O)CC[C@H]3[C@@H]1CC2 .
20.9

Give the measured TGI of C=C(C)[C@@H]1CC[C@]2(C)[C@H](CC[C@@H]3[C@H]4[C@H]5OC[C@@]4(CCC5(C)C)CC[C@]32C)[C@@]1(C)CCCN .
3.04

Give the measured TGI of CCCN(CCC)c1ccc(/C=N/NC(=O)c2cccnc2)c(Cl)c1 .
21.1

Give the measured TGI of CCOC(=O)c1sc(Nc2ccc(Cl)cc2)nc1C .
6.14

---

System: OVCAR-4 ovarian
Experiment: NCI tumour cell line growth inhibition, 48 h
test.readout: TGI

Give the measured TGI of c1ccc(/N=N/Nc2ccc(-c3nc4ccccc4[nH]3)cc2)nc1 .
35.8 µM

Give the measured TGI of COc1ccc2c(c1)OC[C@@H]1c3cc4c(cc3O[C@H]21)OCO4 .
> 100 µM

Give the measured TGI of c1ccc2c(c1)Nc1nc3nonc3nc1N2 .
> 100 µM

Give the measured TGI of COc1cccc(/C=C2\CCCCCC2=O)c1 .
> 100 µM

Give the measured TGI of Cc1ccc(-c2csc(=Nc3c(C)n(C)n(-c4ccccc4)c3=O)n2CCO)cc1 .
> 100 µM

Give the measured TGI of Cn1cc(C2=C(c3cn(CCN)c4ccccc34)C(=O)NC2=O)c2ccccc21 .
> 21.2 µM

Give the measured TGI of N=c1ccc2c(c1)[nH]c1c3ccccc3[nH]c3cccc2c31 .
3.23 µM

Give the measured TGI of CCCc1nc2c(C)cc(-c3nc4ccccc4n3C)cc2n1Cc1ccc(-c2ccccc2C(=O)O)cc1 .
> 100 µM

Give the measured TGI of COc1ccc(/C=C2\CCC(C)(CN(C)C)C2=O)cc1 (configuration not stated) .
> 100 µM

Give the measured TGI of Cc1ccccc1CN1CC=c2ccccc2=N1 .
> 100 µM

Give the measured TGI of CN(C)CCCc1c[nH]c2ccccc12 .
> 100 µM

Give the measured TGI of COc1ccccc1CNCCCN1C(=O)c2ccc3c4c(ccc(c24)C1=O)C(=O)N(CCCNCCCN)C3=O .
2.67 µM

Give the measured TGI of Nc1ncnc2c1ncn2C1OC(CO)=CC1O (configuration not stated) .
> 37.5 µM

Give the measured TGI of NC(=S)N/N=C1/C(=O)N(c2ccc(Cl)cc2Cl)C(=O)C(=O)C1c1nc2ccccc2s1 (configuration not stated) .
> 100 µM

Give the measured TGI of CCCCCCCC[N+](C)(CCCCCCCC)CCCCCCCC .
1.67 µM

Give the measured TGI of COc1ccc2c(c1)N=C1CSC(c3cc([N+](=O)[O-])ccc3Cl)N1C2 (configuration not stated) .
> 100 µM

Give the measured TGI of CSc1nc2sc3cc(Cl)ccc3n2c(=N)c1C#N .
> 100 µM

Give the measured TGI of COc1cc([C@@H]2c3[nH]c4ccccc4c3C(Nc3ccc([N+](=O)[O-])cc3)[C@H]3COC(=O)N23)cc(OC)c1O (some centres not stated) .
5.91 µM

Give the measured TGI of CC(C)(C)c1ccc(C(O)c2ccc(C(C)(C)C)cc2)cc1 .
28.5 µM

Give the measured TGI of CCOC(=O)C1=c2[nH]c3cccc4cccc(c43)n2C=C(C(C)=O)C1CC(C)=O (configuration not stated) .
> 100 µM

Give the measured TGI of CN(/N=C/C=N/N(C)C1=NCCCCN1)C1=NCCCCN1 .
> 100 µM

Give the measured TGI of COc1ccc2c(c1)CCC1C2CC[C@]2(C)/C(=N/OC(=O)Cc3ccccc3)CCC12 (some centres not stated) .
48.5 µM

---

For each record, write down the corresponding TGI.
System: SK-MEL-5 melanoma
Assay: NCI tumour cell line growth inhibition, 48 h
Where a SMILES comes first, the peptide text is derived from it. [ ]: non-standard residue; d: D form. The star is where a group is joined. Octanoyl = CCCCCCCC(=O)*; Aib = CC(C)(N)C(=O)O; tBu = CC(C)(C)*
The response must be a number in µM with no trailing unit.

Give the measured TGI of C[C@H]1[C@H](C)CC[C@]2(C(=O)O)CC[C@]3(C)C(=CC[C@@H]4[C@@]5(C)C/C(=C/c6ccco6)C(=O)C(C)(C)[C@@H]5CC[C@]43C)[C@H]12 .
15.6

Give the measured TGI of CN(CCCCN(C)CCc1ccc(Cl)c(Cl)c1)CCCCN1CCCC1 .
3.19

Give the measured TGI of O=C(/C=C/c1ccco1)CC(=O)/C=C/c1ccco1 .
18.1

Give the measured TGI of CC(C)(C)c1ccc(C(O)c2ccc(C(C)(C)C)cc2)cc1 .
30.4

Give the measured TGI of CCCCCCCC(=O)NC(C)(C)C(=O)NC(COC(C)(C)C)C(=O)NC(CC(C)C)C(=O)NC(C)(C)C(=O)NC(COC(C)(C)C)C(=O)NC(COC(C)(C)C)C(=O)NC(CC(C)C)C(=O)NC(C)(C)C(=O)NC(COC(C)(C)C)C(=O)NC(C(=O)NC(CC(C)C)C(=O)OC)C(C)CC (centres undefined) (Octanoyl-[Aib]S(tBu)L[Aib]S(tBu)S(tBu)L[Aib]S(tBu)IL-OMe; configuration not given here) .
16.2

Give the measured TGI of ClC1=C(Cc2ccccc2)Cc2ccc3c(c21)CCC3 .
40.6

Give the measured TGI of CCOC(=O)c1c(C(F)(F)F)n([O-])c2ccc(OC)cc2[n+]1=O .
3.31

Give the measured TGI of COC(=O)C1(Cc2ccccc2)Cc2ccc3c(c2C1=O)CCC3 (centres undefined) .
49.9

Give the measured TGI of COc1ccc2c(c1)CCC1C2CC[C@]2(C)/C(=N/OC(=O)Cc3ccccc3)CCC12 (some centres undefined) .
29.5

Give the measured TGI of CC(C)OP(=O)(OC(C)C)C(=Nc1ccccc1)NNc1ccc([N+](=O)[O-])cc1 .
27.1

Give the measured TGI of COc1ccc(/C(C)=N/OC(=O)c2c(-c3ccccc3Cl)noc2C)cc1CN1CCOCC1 .
31.8

---

Record type: GI50 measurement. Applies to: MDA-MB-435

Give the measured GI50 of COc1cc(/C=C2\COc3ccc(O)c(O)c3C2=O)cc(OC)c1 .
1.52 µM

Give the measured GI50 of CCC(C)C(NC(=O)C1CCCN1C(=O)C(NC(=O)C(C)N)C(C)C)C(N)=O (stereo not given) .
> 100 µM

Give the measured GI50 of COC1=CC(c2ccc[nH]2)=N/C1=C\c1[nH]c(C)c(C(=O)CCCCC(=O)Nc2ccccc2)c1C .
1.79 µM

Give the measured GI50 of CC(=O)N=c1ccc2nc3c(cc(N)c4ccccc43)oc-2c1 .
0.207 µM

Give the measured GI50 of C[C@@H]1C=C2C(=O)O[C@@H]3CC[C@H](C1)[C@]23O .
3.39 µM

Give the measured GI50 of COc1ccc(/C=C/c2n[nH]c3ccc(N4CCOC4=O)cc23)cc1 .
3.2 µM

Give the measured GI50 of COc1ccc(-c2ccc(C3CC(c4ccc(Cl)cc4)=NN3)o2)c([N+](=O)[O-])c1 (stereo not given) .
> 100 µM

Give the measured GI50 of Nc1c(C(=O)Nc2ccccc2Cl)sc2nc3c(cc12)CCCCCC3 .
0.275 µM

Give the measured GI50 of CCOC(=O)c1sc(Nc2ccc(Cl)cc2)nc1C .
2.12 µM

Give the measured GI50 of COc1cc(-n2cc(-c3ccc(Cl)cc3)[nH]c2=O)cc(OC)c1OC .
88.4 µM

Give the measured GI50 of Cc1[nH]c(=O)[nH]c(=O)c1CO .
> 100 µM

Give the measured GI50 of COc1ccc2c(c1)CC[C@@H]1[C@@H]2CC[C@]2(C)C(c3ccco3)=C(C=O)C[C@@H]12 .
2.21 µM

Give the measured GI50 of Nc1ccc(/C=N/Nc2ccnc3c(N)cccc23)c2cccnc12 .
1.64 µM

Give the measured GI50 of Cc1ccc(S(=O)(=O)N2CCc3ccc(O)c4c3C2Cc2cc(Cl)ccc2-4)cc1 (stereo not given) .
0.635 µM

Give the measured GI50 of COC1=CC(c2ccc[nH]2)=N/C1=C\c1ccc[nH]1 .
0.0737 µM

These measurements were taken from PubChem BioAssay (NCI).
